test system: plasma tyrosine; assay: Plasma tyrosine concentration kinetic profile in the rat following a single oral dose; type: in vivo; settings: single oral dose 10 mg/kg, 6 hours post-dose
Recorded measurements of Plasma Tyrosine Concentration, one per entry

{"COMPOUND": "CC1(C)C(=O)C(C(=O)c2ccc(C(F)(F)F)cc2[N+](=O)[O-])C(=O)C(C)(C)C1=O [Compound 3.23]", "RESULT VALUE": "502 ± 37.5 nmol/mL"}
{"COMPOUND": "CCOc1c(S(C)(=O)=O)ccc(C(=O)C2C(=O)CC(C)CC2=O)c1Cl (stereo not drawn) [Compound 3.22]", "RESULT VALUE": "507 ± 86.4 nmol/mL"}

Query compound follows.
Identify the measured Plasma Tyrosine Concentration of CS(=O)(=O)c1ccc(C(=O)C2C(=O)CCCC2=O)c(Cl)c1COCC(F)(F)F [Compound 3.18] for plasma tyrosine. 504 ± 29.4 nmol/mL
